All values here come from patent KR20230139570A.

assay.target: 인간 CD47 단백질 (Human CD47, SPR analyte) (human, UniProt Q08722 19-139, limits assumed)
Sequence (Q08722 19-139 limits assumed): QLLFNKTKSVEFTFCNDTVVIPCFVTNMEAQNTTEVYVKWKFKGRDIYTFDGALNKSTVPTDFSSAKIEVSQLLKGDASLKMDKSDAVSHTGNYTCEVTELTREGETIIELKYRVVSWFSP
protocol: SPR, Biacore 8K, antibody captured, human CD47 as analyte
Task for the reader: assign each of the following binders its reported koff.

## Input Write down koff measured for item Hu3A5V10 전장 항체 (full length antibody, IgG4) (antibody, V domains shown, also called U822EGG010-Hu3A5V10) VH: EVQLVQSGSELKKPGASVKVSCKASGYTFTSYWMHWMRQAPGQGLEWIGVIDPSDSYTSYNQGFTGRFVLSVDTSVSTAYLQISSLKAEDTAVYYCARGGKRAMDYWGQGTTVTVSS VL: DVVMTQSPLSLPVTLGQPASISCRSSQSLVHSNGNTYLHWFQQRPGQSPRLLIYKVSNRFSGVPDRFSGSGSGTDFTLKISRVEAEDVGVYYCSQSTHVPFTFGGGTKLEIKR
## Output 0.000467 s⁻¹

## Input Write down koff measured for item AHF16312 전장 항체 (full length antibody, IgG4) (antibody, V domains shown, also called AHF16312 항체) VH: EVQLVQSGSELKKPGASVKVSCKASGYTFTSYWMHWMRQAPGQGLEWIGVIDPNDSYTSYNQGFTGRFVLSVDTSVSTAYLQISSLKAEDTAVYYCARGGKRIMDYWGQGTTVTVSS VL: DVVMTQSPLSLPVTLGQPASISCRSSQSLVHSNGNTYLNWFQQRPGQSPRLLIYKVSNRFTGVPDRFSGSGSGTDFTLKISRVEAEDVGVYYCSQSTHVPFTFGGGTKLEIKR
## Output 0.000307 s⁻¹

## Input Write down koff measured for item AHF16309 전장 항체 (full length antibody, IgG4) (antibody, V domains shown, also called AHF16309 항체) VH: EVQLVQSGSELKKPGASVKVSCKASGYTFTSYWMHWMRQAPGQGLEWIGVIDPNDSYTSYNQGFTGRFVLSVDTSVSTAYLQISSLKAEDTAVYYCARGGKRMMDYWGQGTTVTVSS VL: DVVMTQSPLSLPVTLGQPASISCRSSQSLVHSNGNTYLNWFQQRPGQSPRLLIYKVSNRFPGVPDRFSGSGSGTDFTLKISRVEAEDVGVYYCSQSTHVPFTFGGGTKLEIKR
## Output 0.000865 s⁻¹

## Input Write down koff measured for item AHF16310 전장 항체 (full length antibody, IgG4) (antibody, V domains shown, also called AHF16310 항체) VH: EVQLVQSGSELKKPGASVKVSCKASGYTFTSYWMHWMRQAPGQGLEWIGVIDPNDSYTSYNQGFTGRFVLSVDTSVSTAYLQISSLKAEDTAVYYCARGGKRMMDYWGQGTTVTVSS VL: DVVMTQSPLSLPVTLGQPASISCRSSQSLVHSNGNTYLHWFQQRPGQSPRLLIYKVSNRFTGVPDRFSGSGSGTDFTLKISRVEAEDVGVYYCSQSTHVPFTFGGGTKLEIKR
## Output 0.000458 s⁻¹
